The values you see were collected from patent US6747023B1.

- TESTED_TARGET: human FXa (Homo sapiens, UniProt P00742)
- Construct: purchased Cosmobio-ERL HFXa-1011
- Sequence (P00742 235-488 limits assumed): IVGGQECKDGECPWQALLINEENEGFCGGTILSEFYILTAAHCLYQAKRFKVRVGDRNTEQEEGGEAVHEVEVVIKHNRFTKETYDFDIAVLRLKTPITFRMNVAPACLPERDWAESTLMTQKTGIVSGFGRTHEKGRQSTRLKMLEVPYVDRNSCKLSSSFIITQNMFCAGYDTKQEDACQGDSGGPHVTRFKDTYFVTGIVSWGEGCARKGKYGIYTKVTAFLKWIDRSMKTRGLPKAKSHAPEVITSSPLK
- Sequence (P00742 41-179 partner limits assumed): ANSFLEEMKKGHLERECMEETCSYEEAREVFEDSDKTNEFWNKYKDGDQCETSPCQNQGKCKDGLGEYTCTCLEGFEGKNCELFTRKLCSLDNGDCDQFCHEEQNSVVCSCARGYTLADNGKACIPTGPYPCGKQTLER
- PROCEDURE_DETAILS: Measurement of FXa inhibitory action (IC50)
- Assay type: biochemical
- CONDITION_DETAILS: 0.05 U/ml human FXa, substrate S2222, absorbance at 405 nm, room temperature; read-out: Concentration (nM) of the sample at which 50% of Fxa activity is inhibited
Structures can show the parent of a compound that is named as a salt.
Lab note: cut-off is 6 nM. Strictly less in IC50 is Condition met. Exactly 6 nM or more is Condition not met.

{"MOLECULE": "O=C(c1ccc(-c2ccnc(CO)c2)cc1)N1CCN(S(=O)(=O)c2ccc3cc(Cl)ccc3c2)CC1", "TESTED_TARGET": "human FXa (Homo sapiens, UniProt P00742)", "CLASS_ASSIGNMENT": "Condition not met"}
{"MOLECULE": "O=C(c1ccc(-c2ccncc2)cc1)N1CCN(S(=O)(=O)c2cc3cc(Cl)ccc3[nH]2)CC1", "TESTED_TARGET": "human FXa (Homo sapiens, UniProt P00742)", "CLASS_ASSIGNMENT": "Condition not met"}
{"MOLECULE": "O=C(c1cnccc1-c1ccncc1)N1CCN(S(=O)(=O)c2ccc3cc(Cl)ccc3c2)CC1 [Example A-4, hydrochloride]", "TESTED_TARGET": "human FXa (Homo sapiens, UniProt P00742)", "CLASS_ASSIGNMENT": "Condition not met"}
{"MOLECULE": "O=C(c1ccc(-c2cc[n+]([O-])cc2)cc1)N1CCN(S(=O)(=O)c2cc3ccc(Cl)cc3[nH]2)CC1", "TESTED_TARGET": "human FXa (Homo sapiens, UniProt P00742)", "CLASS_ASSIGNMENT": "Condition not met"}
{"MOLECULE": "O=C(CC1CN(S(=O)(=O)c2cc3ccc(Cl)cc3s2)CCN1C(=O)c1ncc(-c2cccc[n+]2[O-])cn1)NC1CC1 (stereo not shown)", "TESTED_TARGET": "human FXa (Homo sapiens, UniProt P00742)", "CLASS_ASSIGNMENT": "Condition met"}
{"MOLECULE": "O=C(c1ncc(-c2ccncc2)cn1)N1CCN(S(=O)(=O)c2cc3ccc(Cl)cc3s2)CC1", "TESTED_TARGET": "human FXa (Homo sapiens, UniProt P00742)", "CLASS_ASSIGNMENT": "Condition met"}
{"MOLECULE": "O=C(c1ncc(-c2cccc[n+]2[O-])cn1)N1CCN(S(=O)(=O)c2cc3cc(Cl)ccc3[nH]2)CC1", "TESTED_TARGET": "human FXa (Homo sapiens, UniProt P00742)", "CLASS_ASSIGNMENT": "Condition met"}
